tested on: 677734-321-R-J1-PDC complex spheroid viability; assay: Anticancer human tumor 677734-321-R-J1-PDC patient-derived soft tissue sarcoma cell line growth inhibition [POLQ]; conditions: compound alone; run of 12/05/2023
For each of the molecules below, state its IC50.

Nc1ccc(C#CCN(C(=O)Cc2ncc(C(F)(F)F)cc2C(F)(F)F)c2ccc(F)cc2)nn1
> 10 µM

Now, please, on to the next molecule.
Exam item: Provide one value: measured IC50 of Cc1cccc(N(C)C(=O)C2C(O)CCN2c2nc(C)cc(C(F)(F)F)c2C#N)c1 (configuration not stated)
Marked response: > 10 µM

###

tested on: 677734-321-R-J1-PDC complex spheroid viability; test: Anticancer human tumor 677734-321-R-J1-PDC cell line growth inhibition [POLQ]; conditions: second compound 1 µM; first compound 0.0316 µM; stronger effect = lower value;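 further: spheroids exposed to compounds for one week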;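 on viability, T/C: 100% = vehicle DMSO treated spheroids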
For each of the molecules below, state its viability, T/C.
Numbers only, in %.

# annotated cases, reported viability, T/C shown
COc1cc(C2c3cc4c(cc3C(OC3OC5COC(C)OC5C(O)C3O)C3COC(=O)C23)OCO4)cc(OC)c1O (stereo not drawn) + Cc1cccc(N(C)C(=O)C2C(O)CCN2c2nc(C)cc(C(F)(F)F)c2C#N)c1
114
CCc1cc2c(N3CCc4c(cc(Cn5ccnc5)cc4-c4cn(C)nc4C(F)(F)F)C3=O)cc(C)nc2c(OC)n1 + COC1C(OC(N)=O)C(O)C(Oc2ccc3c(O)c(NC(=O)c4ccc(O)c(CC=C(C)C)c4)c(=O)oc3c2C)OC1(C)C
124

Exam item: Provide one value: measured viability, T/C of O=C(c1cc(Cc2n[nH]c(=O)c3ccccc23)ccc1F)N1CCN(C(=O)C2CC2)CC1 + Cc1cccc(N(C)C(=O)C2C(O)CCN2c2nc(C)cc(C(F)(F)F)c2C#N)c1
Marked response: 115

Recorded values, source PubChem BioAssay AID1963842.
